Here, each record is paired with measured TGI data.
# System: SF-539 CNS
# TEST: NCI tumour cell line growth inhibition, 48 h

As a guide, the following entries are already answered.
COc1ccc(/C=C/COC(C)=O)cc1OC | > 100 µM
CCOC(=O)C1=C(C)N(NC(=O)Nc2ccccc2)C2(N)N(NC(=O)Nc3ccccc3)C(C)=C(C(=O)OCC)C12C(=O)OCC (stereo not given) | 53.4 µM
CC(=C(c1ccc(OCCN2CCCCC2)cc1)c1ccc(OCCN2CCCCC2)cc1)c1ccc(Cl)cc1 | 0.738 µM
O=c1[nH]c(-c2ccccc2)nc2cc(Cl)ccc12 | > 100 µM
COc1cc2c(cc1OC)-c1cc(OC)c(OC)cc1C(CN(C)C)C2 (stereo not given) | > 10 µM

Moving on to the next compound.
For the compound shown here, CCOC(=O)CCC(NC(=O)C(N)Cc1ccc(N(CCCl)CCCl)cc1)C(=O)OCC (stereo not given) , give the reported TGI. 3.38 µM
